Overview of reported viability, T/C across a group of molecules:
system: OVCAR-8 complex spheroid, growth inhibition; experiment: Anticancer human tumor OVCAR-8 cell line growth inhibition [Asc]; details: second compound 0.00316 µM; first compound 0.0316 µM; stronger effect = lower value;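 note: spheroids exposed to agents for 7 days before readout; percent viability relative to DMSO vehicle wells taken as 100%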
Provide the reading as a plain figure in %.

- molecule: "COc1c(OCCCN2CCOCC2)ccc2c3n(c(=NC(=O)c4cnc(N)nc4)nc12)CCN3 + CNC(C)C(=O)NC1CN(S(=O)(=O)c2cccc(S(=O)(=O)N3CCC4CCC(C(=O)NC(c5ccccc5)c5ccccc5)N4C(=O)C(NC(=O)C(C)NC)C3)c2)CCC2CCC(C(=O)NC(c3ccccc3)c3ccccc3)N2C1=O"
  result.unit: "%"
  viability, T/C: 131

What measured viability, T/C goes with O=C(c1ccc(F)c(F)c1Nc1ccc(I)cc1F)N1CC(O)([C@@H]2CCCCN2)C1 + CNC(C)C(=O)NC1CN(S(=O)(=O)c2cccc(S(=O)(=O)N3CCC4CCC(C(=O)NC(c5ccccc5)c5ccccc5)N4C(=O)C(NC(=O)C(C)NC)C3)c2)CCC2CCC(C(=O)NC(c3ccccc3)c3ccccc3)N2C1=O ?
153

I am curious: what viability, T/C value has been reported for NC1CCC(NC2CC2c2ccccc2)CC1 (centres undefined) + CNC(C)C(=O)NC1CN(S(=O)(=O)c2cccc(S(=O)(=O)N3CCC4CCC(C(=O)NC(c5ccccc5)c5ccccc5)N4C(=O)C(NC(=O)C(C)NC)C3)c2)CCC2CCC(C(=O)NC(c3ccccc3)c3ccccc3)N2C1=O ?
99.4

Give the measured viability, T/C of CCN1CCN(Cc2ccc(Nc3ncc(F)c(-c4cc(F)c5nc(C)n(C(C)C)c5c4)n3)nc2)CC1 + CNC(C)C(=O)NC1CN(S(=O)(=O)c2cccc(S(=O)(=O)N3CCC4CCC(C(=O)NC(c5ccccc5)c5ccccc5)N4C(=O)C(NC(=O)C(C)NC)C3)c2)CCC2CCC(C(=O)NC(c3ccccc3)c3ccccc3)N2C1=O .
96

For C=CC(=O)N1CCN(c2nc(=O)n(-c3c(C)ccnc3C(C)C)c3nc(-c4c(O)cccc4F)c(F)cc23)C(C)C1 (centres undefined) + CNC(C)C(=O)NC1CN(S(=O)(=O)c2cccc(S(=O)(=O)N3CCC4CCC(C(=O)NC(c5ccccc5)c5ccccc5)N4C(=O)C(NC(=O)C(C)NC)C3)c2)CCC2CCC(C(=O)NC(c3ccccc3)c3ccccc3)N2C1=O , what is its reported viability, T/C?
105

Value lookup for viability, T/C; key = C#Cc1c(F)ccc2cc(O)cc(-c3ncc4c(N5CC6CCC(C5)N6)nc(OCC56CCCN5CC(F)C6)nc4c3F)c12 (centres undefined) + CNC(C)C(=O)NC1CN(S(=O)(=O)c2cccc(S(=O)(=O)N3CCC4CCC(C(=O)NC(c5ccccc5)c5ccccc5)N4C(=O)C(NC(=O)C(C)NC)C3)c2)CCC2CCC(C(=O)NC(c3ccccc3)c3ccccc3)N2C1=O
106

viability, T/C lookup needed for O=C(c1cc(Cc2n[nH]c(=O)c3ccccc23)ccc1F)N1CCN(C(=O)C2CC2)CC1 + CNC(C)C(=O)NC1CN(S(=O)(=O)c2cccc(S(=O)(=O)N3CCC4CCC(C(=O)NC(c5ccccc5)c5ccccc5)N4C(=O)C(NC(=O)C(C)NC)C3)c2)CCC2CCC(C(=O)NC(c3ccccc3)c3ccccc3)N2C1=O , thanks.
0.81

Given C=C(F)C(=O)N1CCN(c2nc(OCC3CCCN3C)nc3c2CCN(c2cccc4cccc(Cl)c24)C3)CC1CC#N (centres undefined) + CNC(C)C(=O)NC1CN(S(=O)(=O)c2cccc(S(=O)(=O)N3CCC4CCC(C(=O)NC(c5ccccc5)c5ccccc5)N4C(=O)C(NC(=O)C(C)NC)C3)c2)CCC2CCC(C(=O)NC(c3ccccc3)c3ccccc3)N2C1=O , state its recorded viability, T/C.
114

Any idea what viability, T/C was measured for Cn1ncnc1[C@H]1c2n[nH]c(=O)c3cc(F)cc(c23)N[C@@H]1c1ccc(F)cc1 + CNC(C)C(=O)NC1CN(S(=O)(=O)c2cccc(S(=O)(=O)N3CCC4CCC(C(=O)NC(c5ccccc5)c5ccccc5)N4C(=O)C(NC(=O)C(C)NC)C3)c2)CCC2CCC(C(=O)NC(c3ccccc3)c3ccccc3)N2C1=O ?
0.71
